Data provenance: PubChem BioAssay (NCI)

# System: MDA-MB-231 breast
# test method notes: NCI-60 one-dose screen, 48 h (100 = growth as untreated, 0 = no growth, -100 = all killed)
# assay conditions: 10 µM unless noted
About 83,000 compounds went through this panel and 20% of them were active in at least one assay; those are over-represented in the sample as a whole.
Classification by growth follows these ranges: bin 1 = under 20%, bin 2 = from 20% up to 90%, bin 3 = 90% and over

Below, 2 compounds whose answers are already recorded.
compound	group
C[C@@H]1CCC2[C@@H](C)[C@H](OC(=O)CCC(=O)NCCNC(=O)Cc3cc(=O)oc4cc(N(C)C)ccc34)O[C@@H]3O[C@]4(C)CC[C@@H]1C23OO4 (stereo partly drawn)	bin 2
CC[C@H](C)[C@H](NC(=O)C12CC(NC(C)=O)(C1)C2)C(=O)N(C)[C@H](C[C@@H](OC(C)=O)c1nc(C(=O)N[C@@H](Cc2ccccc2)C[C@H](C)C(=O)OC)cs1)C(C)C	bin 2

Query: Class (by measured growth) for COc1cc2c(cc1OCCCCn1c(-c3cccs3)nc3ccccc31)N=C[C@@H]1CCCN1C2=O
Result: bin 1

Query: Input C/C(CC(C)(C)N1CC1)=N\NC(=O)Nc1cccc2ccccc12 ; output its category
Result: bin 2

Query: Class? Entry: CCN(CC)c1ccc2c(c1)OC(N)=C(C#N)C2c1cc(OC)c2c(c1)OCO2 (stereo not drawn)
Result: bin 1
